- assayName: viability loss with induced miR-34 in A549 – imaging, A549 dox-inducible miR-34, nuclei and caspase counts, primary screen (AID 1347080)
- measurementParameters: A549 miR-34 inducible, Hoechst nuclei count, 48 h; measured here: total cells with miR-34 induction; stronger effect = lower value

- compound: "C=C(NC(=O)C(=C)NC(=O)c1csc(C2=N[C@H]3c4csc(n4)[C@H]4NC(=O)c5csc(n5)[C@H]([C@@](C)(O)[C@@H](C)O)NC(=O)[C@H]5CSC(=N5)/C(=C\\C)NC(=O)[C@H]([C@@H](C)O)NC(=O)c5csc(n5)[C@]3(CC2)NC(=O)[C@H](C)NC(=O)C(=C)NC(=O)[C@H](C)NC(=O)[C@H](C(C)CC)N[C@@H]2C=Cc3c([C@H](C)O)cc(nc3[C@H]2O)C(=O)O[C@@H]4C)n1)C(N)=O (some centres not stated)"
  cell count: 7430
- compound: "CCNC(=O)c1[nH]nc(-c2cc(Cl)c(O)cc2O)c1-c1ccc(OC)cc1"
  cell count: 3020
- compound: "COc1cc(=C2C=c3ccccc3=N2)[nH]c1=Cc1[nH]c(C)cc1C"
  cell count: 1770
- compound: "O=c1ncccn1C1OC(CO)C(O)C1O (configuration not stated)"
  cell count: 8580
- compound: "Cn1cc(/C=C/C(=O)N2CCc3[nH]nc(-c4ccccc4F)c3C2)cn1"
  cell count: 7720
- compound: "Cc1ccc(Cl)cc1N(CC(=O)Nc1c(F)cccc1F)S(C)(=O)=O"
  cell count: 8090
- compound: "Cc1c(Cc2ccc3ccccc3n2)c2cc(F)ccc2n1CC(=O)O"
  cell count: 6920

----------
- assayName: growth inhibition, single agents and combos, CRL2098, cell-based, BGB or cisplatin IC20 combos, synergistic combos for chromothripsis tumors (AID 1671454);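 note: cells exposed for 96 h before readout; 0% = vehicle DMSO and 100% = killing by high DMSO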
- measurementParameters: CRL2098 osteosarcoma cells, drug combinations, measured here: combination with cisplatin at IC20, at 0.5 µM, stronger effect = higher value
The entries below are paired with their reported inhibition.

- compound: "CC(=O)C1(O)Cc2c(O)c3c(c(O)c2C(OC2CC(N)C(O)C(C)O2)C1)C(=O)c1ccccc1C3=O (centres undefined)"
  readoutUnit: "%"
  inhibition: 98.6
- compound: "C[C@@H]1O[C@@H](O[C@@H]2[C@@H](O)[C@H](OCCc3ccc(O)c(O)c3)O[C@H](CO)[C@H]2OC(=O)C=Cc2ccc(O)c(O)c2)[C@H](O)[C@H](O)[C@H]1O"
  readoutUnit: "%"
  inhibition: -10.2
- compound: "CC(C=CC(=O)NO)=CC(C)C(=O)c1ccc(N(C)C)cc1 (centres undefined)"
  readoutUnit: "%"
  inhibition: 61.3
- compound: "O=c1[nH]c(=S)[nH]c2nc(-c3ccccc3)c(-c3ccccc3)nc12"
  readoutUnit: "%"
  inhibition: -56.3
- compound: "CC(C)(O)[C@H]1CC[C@@](C)(C2[C@@H](O)C[C@@]3(C)[C@@H]4C[C@H](O)C5C(C)(C)[C@@H](O)CCC56CC46CC[C@]23C)O1 (some centres undefined)"
  readoutUnit: "%"
  inhibition: -18.8
- compound: "Cc1cc(C=CC#N)cc(C)c1Nc1ccnc(Nc2ccc(C#N)cc2)n1"
  readoutUnit: "%"
  inhibition: -40
- compound: "CC1OC(CC(=O)O)CC2=C1C(=O)c1c(O)cccc1C2=O (centres undefined)"
  readoutUnit: "%"
  inhibition: 100
- compound: "C#CCC(CCCCCC)C(=O)O (centres undefined)"
  readoutUnit: "%"
  inhibition: 6.9
- compound: "NC(=O)c1ncn(C2OC(CO)C(O)C2O)c1O (centres undefined)"
  readoutUnit: "%"
  inhibition: -21.8

----------
- assayName: galactose survival enhancers in mitochondrial complex I cybrids – cell-based, galactose medium, ATP luminescence, primary screen (AID 1645843);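 note: positive z means more ATP and so rescue of galactose-driven cybrid death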
- measurementParameters: complex I mutant cybrid cells, 72 h
Calls of active or inactive are those of the source.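 How the source made its calls: active means z-score of at least 1.8 in each of two replicates, scored against plate mean and spread of sample wells; inactive means the rest.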
Possible outcomes: true (1) = active, false (0) = inactive

- compound: "CC(=O)NCC1CN(c2ccc(N3CCOCC3)c(F)c2)C(=O)O1 (configuration not stated)"
  labelValue: "false (0)"
- compound: "CCc1n[nH]c2c1CN(C(=O)c1cncc(C)c1)CC2"
  labelValue: "false (0)"
- compound: "Nc1ncc(-c2ccc(Cl)cc2Cl)cn1"
  labelValue: "false (0)"
- compound: "COCc1ccc(CN2CCC3(CC2)C(=O)N(C2Cc4ccccc4C2)C(=O)N3CC(C)C)o1"
  labelValue: "true (1)"
- compound: "N[C@@H](Cc1ccc(F)cc1)C(=O)O"
  labelValue: "false (0)"
- compound: "C#CC(N)CCC(=O)O (configuration not stated)"
  labelValue: "false (0)"
- compound: "O=C(c1ccc(OC2(C(=O)O)CCSCC2)cc1)N1CCOCC1"
  labelValue: "false (0)"
- compound: "O=C(Nc1ccc(I)cc1)NC1CCCCC1"
  labelValue: "false (0)"
- compound: "Cc1cccc2c(C(=O)N3C4CCCCC3CCC4)cc(-c3cncnc3)nc12"
  labelValue: "false (0)"
- compound: "C[C@H]1NC(=O)[C@H]2CN(C(=O)Oc3ccc(Cl)cc3)CCN2C1=O"
  labelValue: "false (0)"
- compound: "O=C(NN=Cc1cc(Br)c(O)c(Br)c1O)c1cccc(Br)c1"
  labelValue: "false (0)"
- compound: "CCc1ccc(-c2nn(CC(=O)Nc3cnn(C)n3)c3ccccc23)cc1"
  labelValue: "false (0)"
- compound: "C=CCn1nc(C(=O)N2CCOCC2)c2c1CCC(NCc1ccc(Cl)s1)C2 (configuration not stated)"
  labelValue: "false (0)"
- compound: "O=C1N[C@@H](Cc2c[nH]c3ccccc23)C(=O)N2C[C@@H](NCc3ccccc3Cl)C[C@@H]12"
  labelValue: "false (0)"
- compound: "Nc1ncnc2c1ncn2[C@@H]1O[C@H](COP(=O)(O)OP(=O)(O)OP(=O)(O)OP(=O)(O)OC[C@@H]2O[C@H](n3cnc4c(N)ncnc43)C(O)[C@@H]2O)[C@H](O)C1O (some centres not stated)"
  labelValue: "true (1)"
- compound: "OCCCc1cn(CC2CCN(c3ncnc4nc[nH]c34)CC2)nn1"
  labelValue: "false (0)"
- compound: "CCN(CCc1ccccn1)C(=O)c1cc(-c2cnc(N)nc2)nc2c(C)cccc12"
  labelValue: "false (0)"
- compound: "C=C1C2(C(=O)N3CCC(c4ccc(F)cc4)C3)CCC(C2)C1(C)C (configuration not stated)"
  labelValue: "false (0)"
- compound: "Cc1cn(C2C=CC(CO)O2)c(=O)[nH]c1=O (configuration not stated)"
  labelValue: "false (0)"
- compound: "Cc1nc(NC(=O)NCc2cccc(C(F)(F)F)c2)nn1C"
  labelValue: "false (0)"
- compound: "CC1OC(OC2C(CO)OC(OC3C(CO)OC(O)C(O)C3O)C(O)C2O)C(O)C(O)C1NC1C=C(CO)C(O)C(O)C1O (configuration not stated)"
  labelValue: "false (0)"
- compound: "OC[C@H]1NC[C@@H](O)[C@@H]1O"
  labelValue: "false (0)"

----------
- assayName: galactose survival enhancers in mitochondrial complex I cybrids – cell-based, galactose medium, ATP luminescence, primary screen (AID 1645843);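 note: positive z means more ATP and so rescue of galactose-driven cybrid death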
- measurementParameters: complex I mutant cybrid cells, 72 h, stronger effect = higher value
Calls of active or inactive are those of the source.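 The calls were made as follows: active = z-score of at least 1.8 in each of two replicates, scored against plate mean and spread of sample wells; inactive = the rest.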
readoutKind: z-score

- molecule: "c1ccc(NCc2cccnc2)cc1"
  measured: "0.545 (inactive)"
- molecule: "O=C(O)CC1CCCc2ccccc2C1O (configuration not stated)"
  measured: "0.315 (inactive)"
- molecule: "COc1cccc(OC)c1-c1ccc(C(=O)Nc2cccnc2)o1"
  measured: "-0.555 (inactive)"
- molecule: "Cn1ncc(NC(=O)Cn2ccc(-c3ccccc3C(F)(F)F)n2)n1"
  measured: "1.12 (inactive)"
- molecule: "CC(=O)C=Cc1cn(C)c2ccccc12"
  measured: "0.49 (inactive)"
- molecule: "CN(Cc1cnc2ccccc2n1)C(=O)Nc1n[nH]c(-c2ccco2)n1"
  measured: "0.175 (inactive)"
- molecule: "CCn1nc(C(=O)N2CCCC2)c2c1CCC(NCCC1=CCCCC1)C2 (configuration not stated)"
  measured: "-1.23 (inactive)"
- molecule: "CCN(CC)C(=O)c1cc(-c2ccc(C)s2)cc(S(=O)(=O)N2CCOCC2)c1"
  measured: "-0.44 (inactive)"
- molecule: "Cc1cccc(C2CCCN(C(=O)c3cc(C(C)C)no3)C2)c1 (configuration not stated)"
  measured: "1.05 (inactive)"
- molecule: "Cc1ccc(C(=O)N2CCNC(=O)C2Cc2ccccc2)c(F)c1 (configuration not stated)"
  measured: "-0.535 (inactive)"
- molecule: "CCCC(CCC)N[C@H](CO)Cc1ccccc1"
  measured: "-0.345 (inactive)"
- molecule: "CC(C)(O)c1ccccc1CCC(SCC1(CC(=O)O)CC1)c1cccc(C=Cc2ccc3ccc(Cl)cc3n2)c1 (configuration not stated)"
  measured: "0.25 (inactive)"

Entry source: PubChem BioAssay
